Value source: ChEMBL document CHEMBL3988442

test system: Plasmodium falciparum; experiment: Calibr Malaria Delayed Death Assay SOP; type: functional, organism-based; set-up: scale not given: in the data most compounds retested in dose-response had high values; details: concentration 4.99e-06 (unit not given; other assays of the set use mol/L)
In all, about 38,000 compounds went through this assay and about 1,200 (3.2%) showed an effect of 50% or more. The median lay at about -58%. The full list was thinned out, with strong results kept by preference.
Each record's Percent Effect is compared with one (below -40%), two (-40% to below 10%), three (10% or more) to give its class.

Which category fits this record: Cc1ccc(NC(=O)CN2CCOCC2)c(F)c1
two

Please indicate the class for Cc1noc([C@@H]2CC[C@@H]3[C@@H](CCN3S(=O)(=O)c3ccccc3)O2)n1 based on its Percent Effect.
two

Category lookup for the molecule CN1CCCN(c2ccc(F)cc2CNC(=O)c2ccsc2)CC1
three

Tag the class for CN(C)C(=O)CC1CC2(CCN(Cc3ccco3)CC2)c2ccccc21.O=C(O)C(F)(F)F (stereo not given)
three

Please classify: CN(C)C1CCN(c2cc(-c3ccccc3)nc3ccnn23)C1 (stereo not given)
three

Tag the class for O=C(Nc1cnn(Cc2ccc(F)cc2Cl)c1)C1CC1
two

Pick a category. Item: CCn1ccnc1CN(C)C(=O)Cn1ccc2ccccc2c1=O
one

Form: Item = CN1CCC(N(C)C[C@H]2CC[C@@H](Cc3cccc(CO)c3)O2)CC1 ; Class = ?
one

Sort CC(C)[C@@H]1CN(S(=O)(=O)c2cccc(C(=O)O)c2)C[C@H]1N(C)C into one of the categories.
one

Returns: class label. Input: CN1CCN(c2ccccc2CNC(=O)Cc2cccc(F)c2)CC1
three

Band for the recorded Percent Effect of COc1ccc(C(=O)N2CCC(Nc3cccnn3)CC2)cn1 ?
one

Assign a category based on measured Percent Effect for O=C(NCc1cccnc1N1CCCC(O)C1)c1ccsc1 (stereo not given) and give only the class name.
two

# bin label for CC1CN(CC(=O)NC2CCCC2)CCN1c1ccc2nncn2n1 (stereo not given)
two

Form: Item = CCNC(=O)C1CCN(c2cc(-c3ccccc3)nc3ccnn23)C1 (stereo not given) ; Class = ?
two

Form: Item = COc1ccc(-c2c(C)nn3c(=N)c(C#N)n[nH]c23)cc1 ; Class = ?
one

In plain terms, what class is O=C(NC1CCCN(CCCc2ccccc2)C1)c1ccc(Cl)s1 (stereo not given) ?
three

Categorize the following entry: COCCN(CC1CCCN(C2Cc3ccccc3C2)C1)C(=O)CO (stereo not given)
three

Just checking, what class would you give CN(C)c1ncc2c(n1)CN(C1CCSCC1)C2=O here?
one

Just checking, what class would you give CCc1cc2c(N3CCCC(c4ccn[nH]4)C3)ncnc2s1 (stereo not given) here?
three

Please indicate the class for C[C@]1(O)CCN(Cc2cccnc2)C[C@@H]1Oc1cccc(F)c1 based on its Percent Effect.
two

For this molecule, which bin applies? CSCCC(NC(=O)c1nc(SC)ncc1Cl)C(=O)O (stereo not given)
two

Could you place CCS(=O)(=O)N1CC(c2nc(-c3ccsc3)no2)C1 in its proper category? Many thanks.
one

Band for COc1cc(F)ccc1N(C)Cc1cccnc1 ?
one

Into which category would you place CCc1c(C)sc2nc3n(CC(N)=O)nc(SC)n3c(=O)c12 ?
two

Field: class (Percent Effect) — entry: COCCN(CC1CCCN(C2Cc3ccccc3C2)C1)C(=O)COC (stereo not given)
three
